tested on: EKVX NSCLC; experiment: NCI-60 one-dose screen, 48 h (100 = growth as untreated, 0 = no growth, -100 = all killed); details: 10 µM unless noted
About 83,000 compounds went through this panel and 20% of them were active in at least one assay; those are over-represented in the sample as a whole.
Items are presented alongside their recorded growth.
outcome-measure: growth (%)

• COc1ccc(/C=N/NC(=O)CSc2nc(-c3cnccn3)cc(-c3cccs3)c2C#N)cc1OC = 85.9
• CC(C)(C)c1cc(NC(=O)Nc2ccc(-c3cn4c5c(sc4n3)CCc3c[nH]cc3-5)cc2)no1 = 32.9
• Cn1cc(C2=C(c3coc4cc(Br)ccc34)C(=O)NC2=O)c2ccccc21 = 67
• CC(=C(c1ccc(OCCCN(C)C)cc1)c1ccc(OCCCN(C)C)cc1)c1ccc(Cl)cc1 = 94.7
• Cn1c(SCC(=O)c2ccc(F)cc2)nc2ccccc2c1=O = 79.6
